test system: Streptococcus suis P1/7; assay: percent growth relative to DMSO control; higher = less growth inhibition; conditions: 10 µM; incubation time 18 h
measurement-kind: percent growth (%)

[[record]]
compound = "Nc1ncc(Br)cc1-c1nc2cc(Cl)cnc2[nH]1"
unit_tag = "%"
quantitative_readout = 100

[[record]]
compound = "CCOc1ccc(-c2nc(NC(=O)CS(=O)(=O)c3ccccc3)sc2C)cc1"
unit_tag = "%"
quantitative_readout = 153

[[record]]
compound = "Cc1ccc(S(=O)(=O)n2cc(-c3ccnc(N)c3)c3cc(Br)cnc32)cc1"
unit_tag = "%"
quantitative_readout = 61.5

[[record]]
compound = "CC(C(=O)Nc1ccc2oc(-c3ccncc3)nc2c1)c1ccccc1 (stereo unspecified)"
unit_tag = "%"
quantitative_readout = 95.8

[[record]]
compound = "Cc1ccc(NC(=O)c2cc(S(=O)(=O)NC(C)(C)C)ccc2C)nc1"
unit_tag = "%"
quantitative_readout = 75.6

[[record]]
compound = "CCCn1c(NC(=O)c2ccc3ccccc3n2)nc2ccccc21"
unit_tag = "%"
quantitative_readout = 0.618

[[record]]
compound = "N=C(N)c1ccc(OCCCCCOc2ccc(C(=N)N)cc2)cc1"
unit_tag = "%"
quantitative_readout = 37.1

[[record]]
compound = "N=C(N)Nc1ccc(-c2ccc(-c3ccc(N=C(N)N)c(Cl)c3)o2)cc1Cl"
unit_tag = "%"
quantitative_readout = 53.1

[[record]]
compound = "CC(=O)NC[C@@H]1CN(c2ccc(N3CCOCC3)c(F)c2)C(=O)O1"
unit_tag = "%"
quantitative_readout = 3.05

[[record]]
compound = "Nc1ccc2ncnc(Nc3ccc(OCc4cccc(F)c4)c(Cl)c3)c2c1"
unit_tag = "%"
quantitative_readout = 81.2

[[record]]
compound = "CCc1nc2ccc(Cl)cn2c1C(=O)NCc1ccc(N2CCC(c3ccc(OC(F)(F)F)cc3)CC2)cc1"
unit_tag = "%"
quantitative_readout = 111

[[record]]
compound = "COc1ccc(C2=NN(C3CCCCCC3)C(=O)C2(C)C)cc1OCCCCOc1ccc(-c2nn[nH]n2)cc1"
unit_tag = "%"
quantitative_readout = 16.3

[[record]]
compound = "Nc1ncc(-c2cn[nH]c2)cc1-c1nc2cc(Cl)cnc2[nH]1"
unit_tag = "%"
quantitative_readout = 74

[[record]]
compound = "CC(=O)NCC1CN(c2ccc(-c3ccc(CNCc4cn[nH]n4)cc3)c(F)c2)C(=O)O1 (stereo unspecified)"
unit_tag = "%"
quantitative_readout = 0.637

[[record]]
compound = "COc1ccccc1CNC(=O)c1cc(C2CC2)nc2c1cnn2C(C)C"
unit_tag = "%"
quantitative_readout = 83.8

[[record]]
compound = "COc1ccc2nc(C)cc(OCC(=O)Nc3ccccc3OC)c2c1"
unit_tag = "%"
quantitative_readout = 67.6

[[record]]
compound = "COc1ccc(C2=NCCN2)cc1-c1cn(-c2cccc(C3=NCCN3)c2)nn1"
unit_tag = "%"
quantitative_readout = 87.9

[[record]]
compound = "Cc1cc(NC(=O)c2ccc(S(=O)(=O)N(Cc3ccccc3)C(C)C)cc2)no1"
unit_tag = "%"
quantitative_readout = 71.6

[[record]]
compound = "CCOC(=O)c1cc(-c2csc(Nc3c(C)cc(C)cc3C)n2)on1"
unit_tag = "%"
quantitative_readout = 108

[[record]]
compound = "C[C@H](c1ccc2c(c1)CCCC2)N(C)c1ncc2c(N)nc(N)nc2n1"
unit_tag = "%"
quantitative_readout = 76.6

[[record]]
compound = "Cc1cnc(N2CCN[C@@H](Cc3ccccc3)C2)nc1Oc1ccc(-n2ccnc2)cc1"
unit_tag = "%"
quantitative_readout = 109


* * *

system: Streptococcus suis HE06; assay: percent growth relative to DMSO control; higher = less growth inhibition; conditions: 10 µM; incubation time 18 h
// reported percent growth per item
measurement-kind: percent growth (%)

[[record]]
smiles_text = "COc1nc2ccc(Br)cc2cc1[C@@H](c1ccccc1)[C@@](O)(CCN(C)C)c1cccc2ccccc12"
quantitative_readout = 59.8

[[record]]
smiles_text = "COc1cccc(NC(=O)c2c(NC(=O)c3cccnc3)sc3c2CCC3)c1"
quantitative_readout = 98.2

[[record]]
smiles_text = "CN1CCC(NCc2cccc(-c3ccc(S(=O)(=O)NCc4ccccc4)cc3)c2)CC1"
quantitative_readout = 94.9

[[record]]
smiles_text = "CCCS(=O)(=O)N1CCC(CO)(Cc2ccccc2C(F)(F)F)CC1"
quantitative_readout = 99.2

[[record]]
smiles_text = "CCCn1nnc(NC(=O)COc2ccc(C3CCCCC3)cc2)n1"
quantitative_readout = 115

[[record]]
smiles_text = "COc1ccc(C2=NCCN2)cc1-c1cn(-c2cccc(C3=NCCN3)c2)nn1"
quantitative_readout = 99.9


* * *

system: Streptococcus suis HE06; test: percent growth relative to DMSO control; higher = less growth inhibition; settings: 10 µM; incubation time 18 h
measurement-kind: percent growth (%)

[[record]]
compound = "Cc1cccc(-c2nc(Nc3ccncn3)c3sccc3n2)n1"
target_of_assay = "Streptococcus suis HE06"
unit_tag = "%"
quantitative_readout = 0.0155

[[record]]
compound = "Cc1cc(C)cc(COc2ccc3c(C)c(CCC(=O)O)c(=O)oc3c2C)c1"
target_of_assay = "Streptococcus suis HE06"
unit_tag = "%"
quantitative_readout = 39.9

[[record]]
compound = "O=C(NCc1cc(Cl)cc(Cl)c1)c1c(C(F)(F)F)nc2ccccn12"
target_of_assay = "Streptococcus suis HE06"
unit_tag = "%"
quantitative_readout = 84.6

[[record]]
compound = "COc1ccc(-c2nn(C(C)C)c3ncnc(N)c23)cc1OC"
target_of_assay = "Streptococcus suis HE06"
unit_tag = "%"
quantitative_readout = 112

[[record]]
compound = "CCc1ccc(S(=O)(=O)Nc2cc(CN3CCN(CCC(C)C)CC3)ccc2C)cc1"
target_of_assay = "Streptococcus suis HE06"
unit_tag = "%"
quantitative_readout = 95.7

[[record]]
compound = "Cc1cnc(N2CCN[C@@H](Cc3ccccc3)C2)nc1Oc1ccc(-n2ccnc2)cc1"
target_of_assay = "Streptococcus suis HE06"
unit_tag = "%"
quantitative_readout = 98.9

[[record]]
compound = "O=C(Nc1nnc(-c2ccc(Cl)cc2)o1)c1cccc(C(F)(F)F)c1"
target_of_assay = "Streptococcus suis HE06"
unit_tag = "%"
quantitative_readout = 0

[[record]]
compound = "COc1cc(C2=NCCN2)ccc1-n1cc(-c2cccc(C3=NCCN3)c2)nn1"
target_of_assay = "Streptococcus suis HE06"
unit_tag = "%"
quantitative_readout = 99.7

[[record]]
compound = "O=C(OCc1ccccc1)N1CCC(c2cc(-c3ccncc3)c(-c3ccc(F)cc3)[nH]2)CC1"
target_of_assay = "Streptococcus suis HE06"
unit_tag = "%"
quantitative_readout = 126

[[record]]
compound = "CN1CCN(c2nccc3nc(-c4ccc(F)c(F)c4)[nH]c23)CC1"
target_of_assay = "Streptococcus suis HE06"
unit_tag = "%"
quantitative_readout = 82.2

[[record]]
compound = "Cc1ccc2c(c1C)NC(=O)C21NN=C(c2ccccc2)S1 (stereo not given)"
target_of_assay = "Streptococcus suis HE06"
unit_tag = "%"
quantitative_readout = 0.434

[[record]]
compound = "COc1ccc(N(CCc2cccc(C)n2)C(C)=O)cc1"
target_of_assay = "Streptococcus suis HE06"
unit_tag = "%"
quantitative_readout = 112

[[record]]
compound = "COCC(C)NC(=O)CSc1ncnc2sc(-c3ccccc3)cc12 (stereo not given)"
target_of_assay = "Streptococcus suis HE06"
unit_tag = "%"
quantitative_readout = 95.4

[[record]]
compound = "Nc1nc2ccc(-c3cncc(Oc4ccc(F)cc4)c3)cc2[nH]1"
target_of_assay = "Streptococcus suis HE06"
unit_tag = "%"
quantitative_readout = 91.8

[[record]]
compound = "CC(=O)Nc1ccc(-c2noc(CC3CCCN(Cc4cccc(F)c4C)C3)n2)cc1 (stereo not given)"
target_of_assay = "Streptococcus suis HE06"
unit_tag = "%"
quantitative_readout = 109

[[record]]
compound = "CCCCS(=O)(=O)Nc1ccc2cnn(C)c2c1"
target_of_assay = "Streptococcus suis HE06"
unit_tag = "%"
quantitative_readout = 92.3

[[record]]
compound = "NS(=O)(=O)c1cncc(-c2ccc3nccc(-c4cn[nH]c4)c3n2)c1"
target_of_assay = "Streptococcus suis HE06"
unit_tag = "%"
quantitative_readout = 102

[[record]]
compound = "CCN(CC)S(=O)(=O)c1ccc(C(=O)Nc2cc(C)nn2-c2nc(C)c(C)c(=O)[nH]2)cc1"
target_of_assay = "Streptococcus suis HE06"
unit_tag = "%"
quantitative_readout = 0.274

[[record]]
compound = "O=C(NC1CC1)c1ccc(N2CCOc3ccc(Cl)cc32)s1"
target_of_assay = "Streptococcus suis HE06"
unit_tag = "%"
quantitative_readout = 73.8

[[record]]
compound = "Cc1cc(C)nc(-n2nc(C)cc2Nc2ccccc2)n1"
target_of_assay = "Streptococcus suis HE06"
unit_tag = "%"
quantitative_readout = 0.964

[[record]]
compound = "CNc1nnc(Sc2cnn(-c3ccccc3)c(=O)c2Cl)s1"
target_of_assay = "Streptococcus suis HE06"
unit_tag = "%"
quantitative_readout = 81.9

[[record]]
compound = "Cc1ccc2nc(C)c(-c3ccn(Cc4ccccc4)n3)n2c1"
target_of_assay = "Streptococcus suis HE06"
unit_tag = "%"
quantitative_readout = 90

[[record]]
compound = "CC(=O)NC[C@@H]1CN(c2ccc(N3CCOCC3)c(F)c2)C(=O)O1"
target_of_assay = "Streptococcus suis HE06"
unit_tag = "%"
quantitative_readout = 3.9

[[record]]
compound = "Clc1ccc(CN2CCN(C3=NCCN3)CC2)cc1Cl"
target_of_assay = "Streptococcus suis HE06"
unit_tag = "%"
quantitative_readout = 89

[[record]]
compound = "c1csc(-c2cnc3sc(NCC4CCOCC4)nn23)c1"
target_of_assay = "Streptococcus suis HE06"
unit_tag = "%"
quantitative_readout = 109

[[record]]
compound = "Cc1nn2c(O)c3c(nc2c1-c1ccc(F)cc1)CCCC3"
target_of_assay = "Streptococcus suis HE06"
unit_tag = "%"
quantitative_readout = 63.3

[[record]]
compound = "O[C@@H](c1cc(C(F)(F)F)nc2c(C(F)(F)F)cccc12)[C@H]1CCCCN1"
target_of_assay = "Streptococcus suis HE06"
unit_tag = "%"
quantitative_readout = 94

[[record]]
compound = "O=C(Nc1cccnc1)c1c(O)c2cccc3c2n(c1=O)CC3"
target_of_assay = "Streptococcus suis HE06"
unit_tag = "%"
quantitative_readout = 78.3

[[record]]
compound = "Cc1ccc2oc(-c3cc(NC(=O)Cc4ccccc4)ccc3Cl)nc2c1"
target_of_assay = "Streptococcus suis HE06"
unit_tag = "%"
quantitative_readout = 93.1

[[record]]
compound = "CCc1cc(=O)n(C)c(SC(C)C(=O)Nc2ccc(F)cc2)n1 (stereo not given)"
target_of_assay = "Streptococcus suis HE06"
unit_tag = "%"
quantitative_readout = 110

[[record]]
compound = "COc1cc(C2=NCCN2)cc2cc(-c3ccc(C4=NCCN4)cc3)oc12"
target_of_assay = "Streptococcus suis HE06"
unit_tag = "%"
quantitative_readout = 106

[[record]]
compound = "CCOc1ccc(-c2nc(CNCCc3ccc(F)cc3)cs2)cc1"
target_of_assay = "Streptococcus suis HE06"
unit_tag = "%"
quantitative_readout = 97.3

[[record]]
compound = "CCOC(=O)c1cc(-c2csc(Nc3c(C)cc(C)cc3C)n2)on1"
target_of_assay = "Streptococcus suis HE06"
unit_tag = "%"
quantitative_readout = 91.3

[[record]]
compound = "Cc1cc(NCCc2ccccc2)nc(NC(=N)Nc2ccc(Cl)cc2)n1"
target_of_assay = "Streptococcus suis HE06"
unit_tag = "%"
quantitative_readout = 148

[[record]]
compound = "c1ccc(Oc2ccc(-c3cc(C4CCOCC4)[nH]n3)cc2)cc1"
target_of_assay = "Streptococcus suis HE06"
unit_tag = "%"
quantitative_readout = 59.7

[[record]]
compound = "Cc1cc(Nc2ccncc2)n2nc(C)c(-c3ccccc3Cl)c2n1"
target_of_assay = "Streptococcus suis HE06"
unit_tag = "%"
quantitative_readout = 73.9

[[record]]
compound = "O=C(C(Cc1c[nH]c2ccccc12)NS(=O)(=O)c1ccc(Cl)cc1)N1CCCCC1 (stereo not given)"
target_of_assay = "Streptococcus suis HE06"
unit_tag = "%"
quantitative_readout = 89.3

[[record]]
compound = "Cc1cccc(Cn2ccc(NC(=O)c3ccc4c(c3)OCO4)n2)c1"
target_of_assay = "Streptococcus suis HE06"
unit_tag = "%"
quantitative_readout = 75.3

[[record]]
compound = "Cc1nn(C(=O)Nc2cccc(C(F)(F)F)c2)c(C)c1Sc1ncccn1"
target_of_assay = "Streptococcus suis HE06"
unit_tag = "%"
quantitative_readout = 25.4

[[record]]
compound = "Nc1nccc2ccc(Oc3ccncc3)cc12"
target_of_assay = "Streptococcus suis HE06"
unit_tag = "%"
quantitative_readout = 97.4

[[record]]
compound = "COc1ccc(CN2CCOc3ccc(C(C)(O)CN(C)C)cc3C2)cc1C (stereo not given)"
target_of_assay = "Streptococcus suis HE06"
unit_tag = "%"
quantitative_readout = 103

[[record]]
compound = "COc1cc(Br)cc2cc(C(=O)Nc3cccc(C(F)(F)F)c3)c(=O)oc12"
target_of_assay = "Streptococcus suis HE06"
unit_tag = "%"
quantitative_readout = 116

[[record]]
compound = "CS(=O)(=O)c1ccccc1C(=O)N(Cc1ccccc1)c1ccccc1"
target_of_assay = "Streptococcus suis HE06"
unit_tag = "%"
quantitative_readout = 115

[[record]]
compound = "Cc1ccccc1C(=O)N1N=C(Nc2ccccc2)SC1(C)C"
target_of_assay = "Streptococcus suis HE06"
unit_tag = "%"
quantitative_readout = 104

[[record]]
compound = "c1ccc(-c2cc(N3CCCCC3)c3ccccc3n2)nc1"
target_of_assay = "Streptococcus suis HE06"
unit_tag = "%"
quantitative_readout = 0.646

